Reported IC50 is given for each of the following compounds.
Tested on: Jurkat
Assay: Inhibition of PHA/TPA-induced IL2 release in human Jurkat T cells preincubated for 10 mins followed by PHA/TPA stimulation measured after […] by ELISA
Format: functional, cell-based
Give the quantity in nM, number only.

- Cc1nc2cc(Cl)c(-c3cnc(NC(=O)c4ccccc4Cl)s3)cc2o1: 50

Attention now turns to another entry.
Tell me the measured IC50 of Cn1nc(-c2ccco2)cc1-c1ccc(C(=O)Nc2ccccc2Cl)s1 , please. 50

* * *

Reported IC50 is given for each of the following compounds.
Tested on: Jurkat
Assay: Inhibition of PHA/TPA-induced IL2 release in human Jurkat T cells preincubated for 10 mins followed by PHA/TPA stimulation measured after […] by ELISA
Assay type: functional, cell-based

Some solved cases for reference:
• Cn1nc(-c2ccccc2)cc1-c1ccc(C(=O)Nc2ccccc2F)s1 = > 100 nM
• Cn1nc(-c2ccccc2F)cc1-c1ccc(C(=O)Nc2ncc(Cl)cc2F)s1 = < 50 nM

Kindly state the measured IC50 obtained for Cn1nc(-c2nccs2)cc1-c1ccc(C(=O)Nc2ncc(Cl)cc2F)s1 with Jurkat. < 50 nM

Moving on to the next compound: Cn1nc(-c2ccccc2F)cc1-c1ccc(C(=O)Nc2ccncc2F)s1 < 50 nM

Moving on to the next compound: Cn1nc(-c2nccs2)cc1-c1ccc(C(=O)Nc2ccccc2F)s1 < 50 nM

Moving on to the next compound: Cn1nc(-c2ccccc2F)cc1-c1ccc(C(=O)Nc2ncccc2F)s1 50 nM

Moving on to the next compound: Cn1nc(-c2ccco2)cc1-c1ccc(C(=O)Nc2ccncc2F)s1 < 50 nM

Moving on to the next compound: Cn1nc(-c2nccs2)cc1-c1ccc(C(=O)Nc2ccncc2F)s1 < 50 nM

Moving on to the next compound: Cn1nc(-c2ccco2)cc1-c1ccc(C(=O)Nc2ncccc2F)s1 > 100 nM

Moving on to the next compound: Cn1nc(C(F)(F)F)cc1-c1cnc(NC(=O)c2ccccc2F)s1 < 50 nM

Moving on to the next compound: Cn1nc(-c2ccccc2)cc1-c1ccc(C(=O)Nc2ccncc2F)s1 50 nM
